All values here come from ChEMBL document CHEMBL4699645.

# target system: Neuronal acetylcholine receptor; alpha3/beta4 (Rattus norvegicus) (UniProt P04757+P12392)
# test summary: Antagonist activity at rat alpha3beta4 nAChR expressed in Xenopus laevis oocytes assessed as inhibition of Ach-induced response at -70 mV holding potential incubated for 5 mins by voltage-clamp assay relative to LvIA IC50
# Format: cell-based
# conditions: Oocyte
Where a SMILES comes first, the peptide text is derived from it. Bridges are numbered along the chain shown (N, C = ends).
I'd be grateful if you could share measured Ratio IC50 for these entries.
I'd appreciate a reply containing only the number, no unit.

input: Respond only with Ratio IC50 recorded for CC[C@H](C)[C@@H]1NC(=O)[C@H](CCC(=O)O)NC(=O)[C@@H]2CCCN2C(=O)[C@H](Cc2cnc[nH]2)NC(=O)[C@H](CC(=O)O)NC(=O)[C@H](C(C)C)NC(=O)[C@H](CC(N)=O)NC(=O)[C@@H]2CSSC[C@H](NC(=O)CN)C(=O)N[C@@H](CSSC[C@@H](C(N)=O)NC1=O)C(=O)N[C@@H](C)C(=O)N[C@@H](Cc1cnc[nH]1)C(=O)N1CCC[C@H]1C(=O)N[C@@H](C)C(=O)N2 (H-GCCAHPACNVDHPEIC-NH2; disulfide 2-8, 3-16)
output: 0.7

input: Respond only with Ratio IC50 recorded for CC[C@H](C)[C@@H]1NC(=O)[C@H](CCC(=O)O)NC(=O)[C@@H]2CCCN2C(=O)[C@H](Cc2cnc[nH]2)NC(=O)[C@H](CC(=O)O)NC(=O)[C@H](C(C)C)NC(=O)[C@H](CC(=O)O)NC(=O)[C@@H]2CSSC[C@H](NC(=O)CN)C(=O)N[C@@H](CSSC[C@@H](C(N)=O)NC1=O)C(=O)N[C@@H](CO)C(=O)N[C@@H](Cc1cnc[nH]1)C(=O)N1CCC[C@H]1C(=O)N[C@@H](C)C(=O)N2 (H-GCCSHPACDVDHPEIC-NH2; disulfide 2-8, 3-16)
output: 7.1

input: Respond only with Ratio IC50 recorded for CC[C@H](C)[C@@H]1NC(=O)[C@H](CCC(=O)O)NC(=O)[C@@H]2CCCN2C(=O)[C@H](Cc2cnc[nH]2)NC(=O)[C@H](CC(=O)O)NC(=O)[C@H](C(C)C)NC(=O)CNC(=O)[C@@H]2CSSC[C@H](NC(=O)CN)C(=O)N[C@@H](CSSC[C@@H](C(N)=O)NC1=O)C(=O)N[C@@H](CO)C(=O)N[C@@H](Cc1cnc[nH]1)C(=O)N1CCC[C@H]1C(=O)N[C@@H](C)C(=O)N2 (H-GCCSHPACGVDHPEIC-NH2; disulfide 2-8, 3-16)
output: 19.2

input: Respond only with Ratio IC50 recorded for CC[C@H](C)[C@@H]1NC(=O)[C@H](CCC(=O)O)NC(=O)[C@@H]2CCCN2C(=O)[C@H](Cc2cnc[nH]2)NC(=O)[C@H](CC(=O)O)NC(=O)[C@H](C)NC(=O)[C@H](CC(N)=O)NC(=O)[C@@H]2CSSC[C@H](NC(=O)CN)C(=O)N[C@@H](CSSC[C@@H](C(N)=O)NC1=O)C(=O)N[C@@H](CO)C(=O)N[C@@H](Cc1cnc[nH]1)C(=O)N1CCC[C@H]1C(=O)N[C@@H](C)C(=O)N2 (H-GCCSHPACNADHPEIC-NH2; disulfide 2-8, 3-16)
output: 1.1

input: Respond only with Ratio IC50 recorded for CC(C)[C@@H]1NC(=O)[C@H](CC(N)=O)NC(=O)[C@@H]2CSSC[C@H](NC(=O)CN)C(=O)N[C@@H](CSSC[C@@H](C(N)=O)NC(=O)[C@H](C)NC(=O)[C@H](CCC(=O)O)NC(=O)[C@@H]3CCCN3C(=O)[C@H](Cc3cnc[nH]3)NC(=O)[C@H](CC(=O)O)NC1=O)C(=O)N[C@@H](CO)C(=O)N[C@@H](Cc1cnc[nH]1)C(=O)N1CCC[C@H]1C(=O)N[C@@H](C)C(=O)N2 (H-GCCSHPACNVDHPEAC-NH2; disulfide 2-8, 3-16)
output: 4.8

input: Respond only with Ratio IC50 recorded for CC[C@H](C)[C@@H]1NC(=O)[C@H](CCC(=O)O)NC(=O)[C@H](C)NC(=O)[C@H](Cc2cnc[nH]2)NC(=O)[C@H](CC(=O)O)NC(=O)[C@H](C(C)C)NC(=O)[C@H](CC(N)=O)NC(=O)[C@@H]2CSSC[C@H](NC(=O)CN)C(=O)N[C@@H](CSSC[C@@H](C(N)=O)NC1=O)C(=O)N[C@@H](CO)C(=O)N[C@@H](Cc1cnc[nH]1)C(=O)N1CCC[C@H]1C(=O)N[C@@H](C)C(=O)N2 (H-GCCSHPACNVDHAEIC-NH2; disulfide 2-8, 3-16)
output: 1.9
